# PROTOCOL: Drug level in Sprague-Dawley rat cerebrospinal fluid at 10 mg/kg, sc after 0.25 hrs
# Type: ADME, organism-based
# Set-up: dose 10 mg/kg, route subcutaneous
# RUN CONDITIONS: read-out: Drug uptake
MEASURED METRIC: concentration at 0.25 h (µM)
The figure you give is taken to be in µM; do not add the unit.

# return recorded concentration at 0.25 h for entry N[C@H]1Cc2ccccc2N(O)C1=O 4.06

====

# MEASUREMENT TARGET: Kynurenine/alpha-aminoadipate aminotransferase, mitochondrial (Rattus norvegicus)
# PROTOCOL: Ratio of Kinact to Ki for rat recombinant KAT2 using L-kynurenine as substrate
MEASURED METRIC: log10(Ratio) (log10 of the value in M⁻¹ s⁻¹)
# log10 transformed; quantity=Ratio; unit=M⁻¹ s⁻¹

COMPOUND STRING	MEASUREMENT TARGET	log10(Ratio)
N[C@H]1Cc2cc(C(F)(F)F)ccc2N(O)C1=O	Kynurenine/alpha-aminoadipate aminotransferase, mitochondrial (Rattus norvegicus)	2.01
N[C@H]1Cc2cccc(F)c2N(O)C1=O	Kynurenine/alpha-aminoadipate aminotransferase, mitochondrial (Rattus norvegicus)	1.76
N[C@H]1Cc2ccc(Cl)cc2N(O)C1=O	Kynurenine/alpha-aminoadipate aminotransferase, mitochondrial (Rattus norvegicus)	3.07
N[C@H]1Cc2ccccc2N(O)C1=O	Kynurenine/alpha-aminoadipate aminotransferase, mitochondrial (Rattus norvegicus)	2.76
COc1ccc2c(c1)N(O)C(=O)[C@@H](N)C2	Kynurenine/alpha-aminoadipate aminotransferase, mitochondrial (Rattus norvegicus)	3.26

Give log10(Ratio) for Cc1ccc2c(c1)N(O)C(=O)[C@@H](N)C2 tested on Kynurenine/alpha-aminoadipate aminotransferase, mitochondrial (Rattus norvegicus). 2.77

Give log10(Ratio) for N[C@H]1Cc2cc(Cl)ccc2N(O)C1=O tested on Kynurenine/alpha-aminoadipate aminotransferase, mitochondrial (Rattus norvegicus). 2.67

Give log10(Ratio) for Cc1ccc2c(c1)C[C@H](N)C(=O)N2O tested on Kynurenine/alpha-aminoadipate aminotransferase, mitochondrial (Rattus norvegicus). 2.22

====

Quick reference for IC50 among some compounds
# MEASUREMENT TARGET: Kynurenine/alpha-aminoadipate aminotransferase, mitochondrial (Homo sapiens)
# Sequence (Q8N5Z0 whole entry): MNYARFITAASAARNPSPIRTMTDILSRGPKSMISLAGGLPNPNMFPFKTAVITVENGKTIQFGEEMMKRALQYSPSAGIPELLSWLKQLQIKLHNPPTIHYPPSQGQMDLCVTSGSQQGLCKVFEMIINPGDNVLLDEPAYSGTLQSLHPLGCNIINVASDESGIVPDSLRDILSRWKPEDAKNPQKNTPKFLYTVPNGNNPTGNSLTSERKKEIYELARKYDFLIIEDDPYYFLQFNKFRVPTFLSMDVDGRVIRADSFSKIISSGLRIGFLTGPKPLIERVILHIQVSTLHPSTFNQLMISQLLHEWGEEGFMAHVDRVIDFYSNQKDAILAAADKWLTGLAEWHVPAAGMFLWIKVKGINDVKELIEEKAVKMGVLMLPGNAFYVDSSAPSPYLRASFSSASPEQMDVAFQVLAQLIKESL
# PROTOCOL: Inhibition of human recombinant KAT2 assessed as conversion of L-kynurenine into kynurenic acid after 15 to 20 hrs
The figure you give is taken to be in nM; do not add the unit.

Worked examples follow.
COMPOUND STRING	MEASURED METRIC	OBSERVED VALUE
N[C@H]1Cc2ccc(Cl)cc2N(O)C1=O	IC50	29
COc1cccc2c1C[C@H](N)C(=O)N2O	IC50	179
N[C@H]1Cc2cc(C(F)(F)F)ccc2N(O)C1=O	IC50	29

# return recorded IC50 for entry COc1ccc2c(c1)N(O)C(=O)[C@@H](N)C2 22

====

# MEASUREMENT TARGET: Kynurenine/alpha-aminoadipate aminotransferase, mitochondrial (Homo sapiens)
# PROTOCOL: Inhibition of human recombinant KAT2 assessed as conversion of L-kynurenine into kynurenic acid after 15 to 20 hrs
pIC50: −log10 of the molar value.
Quick reference for pIC50 among some compounds

COMPOUND STRING	MEASUREMENT TARGET	pIC50
CON1C(=O)[C@@H](N)Cc2ccccc21	Kynurenine/alpha-aminoadipate aminotransferase, mitochondrial (Homo sapiens)	< 5.00

# return recorded pIC50 for entry N[C@H]1Cc2c(cccc2C(F)(F)F)N(O)C1=O < 5.00

# return recorded pIC50 for entry N[C@H]1Cc2ccccc2NC1=O < 5.00
